TARGET OR SYSTEM: EGFRvIII-Fc fusion antigen (human, UniProt P00533 25-645)
ASSAY PROCEDURE: SPR Biacore T200, EGFRvIII-Fc captured via anti-hu Fc, scFv analyte, 1:1 model;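 further: Multi-cycle kinetics on a CM5 chip in HBS-P+ running buffer, 180 s scFv association then 540 s dissociation, with blank flow cell signals subtracted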
We begin with a simple list: items and their reported Kd.
Numeric answer only, unit nM assumed.

Consider the reported Kd for these binders:
{"BINDER": "scFv 476 (scFv, V domains shown, One-chain scFv, His-tagged) VH: EVQLVQSGAEVKKPGESLKISCKGSGYSFTSYWIGWVRQMPGKGLEWMGIIYPGDSDTRYSPSFQGQVTISADKSISTAYLQWSSLKASDTAMYYCARLGSSWTNDAFDIWGQGTLVTVSS VL: SYELTQPPSVSVSPGQTARITCSGDNIPHQYAYWYQQKPGQAPVLVIYKDTERPAGIPERFSGSSSGTTVTLTISGVQAEDEADYYCQSADPTGAYLVFGGGTKLTVL", "READOUT UNIT": "nM", "Kd": 1.56}
{"BINDER": "scFv 479 (scFv, V domains shown, One-chain scFv, His-tagged) VH: EVQLVQSGAEVKKPGESLKISCKGSGYDFSSYWIGWVRQMPGKGLEWMGIIYPGDSDTIYSPSFQGQVTISADKSISTAYLQWSSLKASDTAMYYCARLGSSWTNDAFDIWGQGTLVTVSS VL: SYELTQPPSVSVSPGQTARITCSGAALPEQYAYWYQQKPGQAPVLVIYKDSERPSGIPERFSGSSSGTTVTLTISGVQAEDEADYYCQSVDSSGTFYVFGGGTKLTVL", "READOUT UNIT": "nM", "Kd": 2.54}

Next item in the queue.
Task item: Entry scFv 471 (scFv, V domains shown, One-chain scFv, His-tagged) VH: EVQLVQSGAEVKKPGESLKISCKGSGYSFNSYWIGWVRQMPGKGLEWMGIIYPGDSANRYSPSFQGQVTISADKSISTAYLQWSSLKASDTAMYYCARLGSSWTNDAFDIWGQGTLVTVSS VL: SYELTQPPSVSVSPGQTARITCSGDYLPKQYAYWYQQKPGQAPVLVIYKDTERPSGIPERFSGSSSGTTVTLTISGVQAEDEADYYCQSVDSSHPSVVFGGGTKLTVL : reported Kd = ?
Reply: 0.26
